Tested on: HCMV
protocol.description: HCMV single-step growth curve / virus titer analysis (MOI=3)
Type: cell-based, Human cytomegalovirus (HCMV)
measurement.context: Human betaherpesvirus 5; added at 2 hpi; MOI 3; 96 hpi; read-out: IC50 (HCMV titers)
quantity.name: IC50

[[record]]
molecule = "Cc1nc(-c2ccc(C3N(C)c4ccc(F)cc4C(=O)N3c3ccccc3)s2)cs1 (centres unmarked) [Retro94F]"
tgt = "HCMV"
obs_value = "~15 nM"

[[record]]
molecule = "Cc1nc(-c2ccc(C3N(C)c4ccccc4C(=O)N3c3ccccc3)s2)cs1 (centres unmarked)"
tgt = "HCMV"
obs_value = "~130 nM"

